The values you see were collected from paper PMC5404542.

- Tested on: A. fumigatus ATCC 204305
- ASSAY SUMMARY: MIC with and without BSA supplementation, quality control strain
- TEST CONTEXT: Aspergillus fumigatus, ATCC204305, without BSA

{"MOLECULE": "CC[C@@H]([C@H](C)O)n1ncn(-c2ccc(N3CCN(c4ccc(OC[C@@H]5CO[C@@](Cn6cncn6)(c6ccc(F)cc6F)C5)cc4)CC3)cc2)c1=O", "MIC / µg/mL": 0.03}
{"MOLECULE": "C[C@@H]1[C@H](O)[C@@H](C)/C=C/C=C/C=C/C=C/C=C/C=C/C=C/[C@H](O[C@@H]2O[C@H](C)[C@@H](O)[C@H](N)[C@@H]2O)C[C@@H]2O[C@](O)(C[C@@H](O)C[C@@H](O)[C@H](O)CC[C@@H](O)C[C@@H](O)CC(=O)O[C@H]1C)C[C@H](O)[C@H]2C(=O)O", "MIC / µg/mL": 1}
{"MOLECULE": "CCC(C)n1ncn(-c2ccc(N3CCN(c4ccc(OCC5COC(Cn6cncn6)(c6ccc(Cl)cc6Cl)O5)cc4)CC3)cc2)c1=O (centres unmarked)", "MIC / µg/mL": 0.25}
{"MOLECULE": "C[C@@H](c1ncncc1F)[C@](O)(Cn1cncn1)c1ccc(F)cc1F", "MIC / µg/mL": 2}
{"MOLECULE": "Cc1cc(N2CCN(c3ccc(C(=O)Nc4ccc(F)cc4)cc3)CC2)ccc1OC[C@@H]1CO[C@@](Cn2cncn2)(c2ccc(F)cc2F)C1", "MIC / µg/mL": 0.25}

----------
- Tested on: A. fumigatus ATCC 204305
- ASSAY SUMMARY: MIC with and without BSA supplementation, quality control strain
- TEST CONTEXT: Aspergillus fumigatus, ATCC204305, with BSA
Documented MIC across a set of compounds

{"COMPOUND": "CCC(C)n1ncn(-c2ccc(N3CCN(c4ccc(OCC5COC(Cn6cncn6)(c6ccc(Cl)cc6Cl)O5)cc4)CC3)cc2)c1=O (stereo not drawn)", "OUTPUT UNIT": "mg/L", "MIC": 0.125}
{"COMPOUND": "CC[C@@H]([C@H](C)O)n1ncn(-c2ccc(N3CCN(c4ccc(OC[C@@H]5CO[C@@](Cn6cncn6)(c6ccc(F)cc6F)C5)cc4)CC3)cc2)c1=O", "OUTPUT UNIT": "mg/L", "MIC": 0.06}

----------
Entries and their MIC values follow.
- System: A. fumigatus ATCC 204305
- ASSAY SUMMARY: MIC with and without BSA supplementation, quality control strain
- TEST CONTEXT: Aspergillus fumigatus, ATCC204305, with BSA

{"MOLECULE": "Cc1cc(N2CCN(c3ccc(C(=O)Nc4ccc(F)cc4)cc3)CC2)ccc1OC[C@@H]1CO[C@@](Cn2cncn2)(c2ccc(F)cc2F)C1 [PC945]", "SYSTEM UNDER TEST": "A. fumigatus ATCC 204305", "MIC, µg/mL": 0.0625}
{"MOLECULE": "C[C@@H]1[C@H](O)[C@@H](C)/C=C/C=C/C=C/C=C/C=C/C=C/C=C/[C@H](O[C@@H]2O[C@H](C)[C@@H](O)[C@H](N)[C@@H]2O)C[C@@H]2O[C@](O)(C[C@@H](O)C[C@@H](O)[C@H](O)CC[C@@H](O)C[C@@H](O)CC(=O)O[C@H]1C)C[C@H](O)[C@H]2C(=O)O [Amphotericin B, amphotericin B]", "SYSTEM UNDER TEST": "A. fumigatus ATCC 204305", "MIC, µg/mL": 2}
